The following molecules are shown together with reported pIC50 values.
target: K-Ras^G12C : hSOS1 interaction (Homo sapiens, UniProt Q07889); assay: Biochemical assay 1: K-Ras^G12C interaction assay with hSOS1 (HTRF); format: binding; conditions: read-out: Assay 1 (KRAS-SOS Interaction) activity expressed as IC50
pIC50: −log10 of the molar value. Structures can show the parent of a compound that is named as a salt.

MOLECULE: COc1cc2nc(C)nc(NC(C)c3ccc(-c4ccccc4CN4CC(O)C4)s3)c2cc1OC (stereo not shown)
pIC50: 7.17

MOLECULE: COc1cc2nc(C)nc(N[C@@H](C)c3ccc(-c4ccccc4OC(F)(F)F)s3)c2cc1OC (racemic)
pIC50: 5.13

MOLECULE: COc1cc2nc(C)nc(N[C@H](C)c3cccc(/C=C/C4CCCCC4)c3)c2cc1OC
pIC50: 4.96

MOLECULE: CCOCc1ccccc1-c1cccc([C@@H](C)Nc2nc(C)nc3cc(OC)c(OC)cc23)c1
pIC50: 5.85

MOLECULE: COc1cc2nc(C)nc(NC(C)c3ccc(-c4ccccc4CN[C@H]4CCN(C)C4=O)s3)c2cc1OC (stereo partly shown)
pIC50: 5.88

MOLECULE: COc1cc2nc(C)nc(N[C@H](C)c3cccc(/C=C/C4CC4)c3)c2cc1OC
pIC50: 5.95

MOLECULE: COc1cc2nc(C)nc(NC(C)c3ccc4c(c3)OCCO4)c2cc1OC (stereo not shown)
pIC50: 5.11

MOLECULE: COc1cc2nc(C)nc(N[C@@H](C)c3ccc(-c4ccc5c(c4)OCCO5)s3)c2cc1OC (racemic)
pIC50: 4.79

MOLECULE: COc1cc2nc(C)nc(N[C@H](C)c3ccc(C4=CCN(C)CC4)cc3)c2cc1OC
pIC50: 4.71

MOLECULE: COc1cc2nc(C)nc(NC(C)c3csc(-c4cnc5n4CCC5)c3)c2cc1OC (stereo not shown)
pIC50: 5.88

MOLECULE: COc1cc2nc(C)nc(N[C@H](C)c3cccc(-c4ccc(C(C)=O)s4)c3)c2cc1OC
pIC50: 6.10

MOLECULE: COc1cc2nc(C)nc(NC(C)c3cccc4ncccc34)c2cc1OC (stereo not shown)
pIC50: 6.19

MOLECULE: COc1cc2nc(C)nc(NC(C)c3nccc4sccc34)c2cc1OC (stereo not shown)
pIC50: 4.89

MOLECULE: COc1cc2nc(C)nc(NC(C)c3ccc(-c4ccc(CN)cc4)s3)c2cc1OC (stereo not shown)
pIC50: 5.44

MOLECULE: COc1cc2nc(C)nc(N[C@@H](C)c3ccc(-c4ccc5c(c4)CCO5)s3)c2cc1OC (racemic)
pIC50: 5.16

MOLECULE: CNC(=O)CNCc1ccccc1-c1ccc(C(C)Nc2nc(C)nc3cc(OC)c(OC)cc23)s1 (stereo not shown)
pIC50: 6.59

MOLECULE: COc1cc2nc(C)nc(NC(C)c3ccc(-c4ccccc4CNc4cc[nH]n4)s3)c2cc1OC (stereo not shown)
pIC50: 6.10

MOLECULE: COc1cc2nc(C)nc(N[C@H](C)c3cccc(-c4cccc5[nH]ccc45)c3)c2cc1OC
pIC50: 5.98

MOLECULE: COc1cc2nc(C)nc(NC(C)c3ccc(-c4ccccc4)o3)c2cc1OC (single isomer, unassigned) [Example 224]
pIC50: 5.44

MOLECULE: COc1cc2nc(C)nc(N[C@@H](C)c3ccc(-c4ccncc4C)s3)c2cc1OC (racemic)
pIC50: 6.17

MOLECULE: COc1cc2nc(C)nc(N[C@H](C)c3cccc(-c4c(C)n[nH]c4C)c3)c2cc1OC
pIC50: 6.44

MOLECULE: COc1cc2nc(C)nc(NC(C)c3ccc(-c4ccc(F)cc4CNC(=O)[C@H]4CCCN4)s3)c2cc1OC (stereo in doubt)
pIC50: 6.57

MOLECULE: CCCNC(=O)c1ccc(-c2cccc([C@@H](C)Nc3nc(C)nc4cc(OC)c(OC)cc34)c2)cc1
pIC50: 6.37

MOLECULE: COc1cc2nc(C)nc(N[C@H](C)c3cccc(-c4c(F)ccc(C)c4Cl)c3)c2cc1OC
pIC50: 5.41

MOLECULE: COc1cc2nc(C)nc(NC(C)c3ccc(-c4ccccc4CN(C)CCO)s3)c2cc1OC (stereo not shown)
pIC50: 7.33

MOLECULE: COc1cc2nc(C)nc(NC(C)c3cc(Br)cs3)c2cc1OC (stereo not shown)
pIC50: 5.23

MOLECULE: COc1cc2nc(C)nc(NC(C)c3ccc(-c4ccccc4CN(C)CC(F)(F)F)s3)c2cc1OC (stereo not shown)
pIC50: 4.83

MOLECULE: COc1cc2nc(C)nc(NC(C)c3ccc(-c4cnn(CC(N)=O)c4)s3)c2cc1OC (stereo not shown)
pIC50: 5.21

MOLECULE: C/C=C(\C)c1ccc([C@H](C)Nc2nc(C)nc3cc(OC)c(OC)cc23)s1 (racemic)
pIC50: 5.12

MOLECULE: COCc1ccccc1-c1cccc([C@@H](C)Nc2nc(C)nc3cc(OC)c(OC)cc23)c1
pIC50: 5.74

MOLECULE: COc1cc2nc(C)nc(NC(C)c3ccc(-c4ccccc4CN4CCNCC4)s3)c2cc1OC (stereo not shown) [Example 305, hydrochloride]
pIC50: 7.21
